Collected literature values of IC50 measured for Cytochrome P450 11B2, mitochondrial (Homo sapiens).
readout type: IC50 (nM)

Field: example entries. Status: answers known.
> print(dat)
                                   molecule  readout.type  readout.units  recorded.value
1  CCC(=O)NC1CCCc2c(-c3cc(F)c(F)cc3F)cncc21 (racemic)          IC50             nM              27
2  [O-][S+](c1ccccc1Cl)c1c(O)c(-c2cccnc2)cc2ccccc12 (centres undefined)          IC50             nM              22
3  Cc1cccc(S(=O)(=O)N2CCCc3cc(-c4cccnc4)ccc32)c1          IC50             nM             205
4            c1ccc(CCOc2cccnc2-c2cccnc2)cc1          IC50             nM            1450
5  O=c1cc(Cn2ccnc2)c2ccc(OCc3cccc(OC(F)(F)F)c3)cc2o1          IC50             nM             125
6         COc1cncc(-c2ccc3c(c2)CCC(=O)N3)c1          IC50             nM             2.7
7       N#Cc1ccc(-c2cccnc2)c(OCCc2ccccc2)c1          IC50             nM              63
8  CCC1CC(c2cccnc2)=Cc2ccccc21 (centres undefined)          IC50             nM             176

(1) O=c1cc(Cn2ccnc2)c2ccc(OCc3ccccc3)cc2o1
(2) COc1cccc(S(=O)(=O)N2CCCc3cc(Cc4ccncc4)ccc32)c1
(3) CC(=O)NC1CCCc2c(-c3ccc(C#N)cc3)cncc21 (racemic)
(4) O=S(=O)(c1cccc(F)c1)N1CCCc2cc(-c3cccnc3)ccc21
(5) Fc1ccc(-c2cccnc2)c(OCCc2ccccc2)c1
input: Sort the 5 molecules by IC50; largest first, smallest last. Sort the labels as requested; that list is your answer.
output: 1, 4, 5, 3, 2
